Hello, the source for this data is PubChem BioAssay AID1508600, in case you need it.

# assay-explanation: Components of the Cytosolic LPS Sensing Pathway: Gene Identification via Genome-wide siRNA Screen
# assay-context: RAW264.7 macrophages, IL-1a HTRF, actives lie on both sides, screened at 100 nM (by protocol), cells primed 5 h with Pam3CSK4 first
The whole screen tested about 53,000 sequences, of which about 3,700 (7%) were called active.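 How the source made its calls: active means gene knockdowns whose robust z-score for IL-1 alpha signal is at least 2 or at most -2, so actives lie on both sides; inactive means the rest.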 The full list was thinned out, with actives kept by preference.
Respond only with the outcome that fits, drawn from active, inactive

Hi, do you know how GGGAUUUUCAAAGUGAGAATT against Pmaip1 came out in this test?
inactive

Assay outcome for GGCUUGGAAUGACACUACUTT against Maged1 : what was it?
inactive

What call does the record list for GGAGUACAGCAUCUCAGCATT against Cacng1 ?
active

Per the assay record, what outcome was assigned to GGUUUGUGUCUAAGGAAUUTT against Klhdc7a ?
inactive

What classification did GCUGGCCAAACUUGACAGUTT against Wwc1 end up with in this test?
active

Hi, sorry to bother you, what did the test record for CGGCUCGUUGAAGAACAAATT against Afap1 ?
inactive
